- tested target: GalNAc3S(b1-4)GlcNAc
- test details: glycan array binding signal (z-score within array); higher = stronger binding
- assay setup: glycan notation: IUPAC condensed, linker removed
Many of the other results were omitted from the sample, so the strongest signals are more common in it than they were.
assay metric: glycan array binding signal (z-score)
Numbers only.

Give me glycan array binding signal (z-score) for each of these binders, listed below.
1. Cohesin-mDCIR (Macaca mulatta) (protein) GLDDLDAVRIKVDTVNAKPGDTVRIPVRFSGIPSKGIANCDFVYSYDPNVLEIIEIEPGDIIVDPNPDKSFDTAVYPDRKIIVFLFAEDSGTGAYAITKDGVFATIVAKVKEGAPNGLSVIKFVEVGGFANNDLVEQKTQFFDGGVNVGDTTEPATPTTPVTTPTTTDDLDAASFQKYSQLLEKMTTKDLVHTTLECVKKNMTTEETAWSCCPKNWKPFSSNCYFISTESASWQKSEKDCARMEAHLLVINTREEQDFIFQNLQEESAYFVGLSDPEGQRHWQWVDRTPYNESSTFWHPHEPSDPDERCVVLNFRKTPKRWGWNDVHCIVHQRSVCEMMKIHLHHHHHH
2. SalT (Orysata sativa) (protein) MTLVKIGLWGGNGGSAQDISVPPKKLLGVTIYSSDAIRSIAFNYIGVDGQEYAIGPWGGGEGTSTEIKLGSSEHIKEISGTHGPVYDLADIVTYLKIVTSANNTYEAGVPNGKEFSIPLQDSGHVVGFFGRSGTLIDAIGIYVHPILEQKLISEEDLNSAVDHHHHHH
3. GSL-I-B4 (Griffonia simplicifolia) (protein) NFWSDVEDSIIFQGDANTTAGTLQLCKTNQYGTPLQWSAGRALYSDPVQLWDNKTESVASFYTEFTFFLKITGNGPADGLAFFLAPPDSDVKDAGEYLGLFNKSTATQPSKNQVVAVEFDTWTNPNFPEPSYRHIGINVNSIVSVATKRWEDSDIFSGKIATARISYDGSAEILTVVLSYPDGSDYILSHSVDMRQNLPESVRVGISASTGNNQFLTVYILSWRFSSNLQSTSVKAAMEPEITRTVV

Reply |
-0.436
-0.306
-0.159
